Numbers sourced from patent US20230106715A1.

Molecular target: T1, mouse Siglec15-his protein (mouse)
T1 construct: In house made
T1 chain: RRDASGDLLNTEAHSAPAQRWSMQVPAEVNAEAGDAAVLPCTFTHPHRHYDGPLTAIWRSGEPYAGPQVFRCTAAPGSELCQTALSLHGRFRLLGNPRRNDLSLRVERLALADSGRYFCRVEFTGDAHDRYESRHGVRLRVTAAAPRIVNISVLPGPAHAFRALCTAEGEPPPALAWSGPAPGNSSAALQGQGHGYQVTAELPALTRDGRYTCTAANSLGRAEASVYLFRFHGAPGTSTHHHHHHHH
Experiment: indirect ELISA on coated mouse Siglec15-his
Reported EC50 values for a set of binders
# number only, unit nM dropped from output

Here is how some binders turned out for EC50.
anti-Siglec15 benchmark (ch5G12) (antibody, human IgG1, kappa, V domains shown, ch5G12 (US 20190202912A1); also called BM; Siglec15-ch5G9) VH: QVQLQQPGAELVKPGASVKMSCKASGYTFTSYWITWVIQRPGQGLEWIGDIYCGSDTMHYNEKFKNKATLTVDTSSSTAYMQLSSLTSEDSAVYYCARWWDYGSSYDYFDYWGQGTTLTVSS VL: DIKMTQSPSSMYASLGERVTITCKASQDINSYLSWFQQKPGKSPKTLIYRANRLVDGVPSRFSGSGSGQDYSLTISSLEYEDMGIYYCLQYDEFPYTFGGGTKLEIKR :: 0.211
B2G12H3E8 (antibody, V domains shown, Mouse monoclonal antibody from hybridoma; also called mouse B2G12H3E8) VH: QVQLKQSGAELVRPGTSVQMSCKAVGYTFTNYWIGWVKQRPGHGLEWVGDIHPGINYTNNNEKFRGKATLTADTSSSTAYMQLRGLTSDDSAIYYCARVDYDYDGSYIMDYWGQGTSVTVSS VL: QIVLSQSPALLSASPGEKVTMTCRASSSVSYMYWYQQKPGSSPKPWIYATSNLTSGVPARFSGSGSGTSYSLTISRVEAEDAATYFCQQWNSKPWTFGGGSKLEIR :: 0.408
B2D7H7A3C1 (antibody, V domains shown, Mouse monoclonal antibody from hybridoma; also called mouse B2D7H7A3C1) VH: QVQLQQSGAELVRPGTSVQMSCKAAGYTFTNYWIGWVKQRPGHGLEWVGDIHPGINYTNNNEKFRGKATLTADTSSNTAYMQLRGLTSDDSAIYYCARVDYDYDGSYIMDYWGQGTSVTVSS VL: QIVLSQSPALLSASPGEKVTMTCRASSSVSYMYWYQQKPGSSPKPWIYATSNLTSGVPARFSGSGSGTSYSLTISRVEAEDAATYFCQQWNSKPWTFGGGSKLEIR :: 0.994

Prompt: # get_value(readout='EC50', item= B2H2H1H7 (antibody, V domains shown, Mouse monoclonal antibody from hybridoma; also called mouse B2H2H1H7; B2H2H1A7) VH: QVQLQQSGAELVRPGTSVQMSCKAAGYTFTNYWIGWVKQRPGHGLEWVGDIHPGINYTNNNEKFRGKATLTADTSSSTAYMQLRGLTSDDSAIYYCARVDYDYDGSYIMDYWGQGTSVTVSS VL: QIILSQSPALLSASPGEKVTMTCRASSSVSYMYWYQQKPGSSPKPWIYATSNLTSGVPARFSGSGSGTSYSLTISRVEAEDAATYFCQQWNSKPWTFGGGSRLEIR )
Completion: 0.651
